test system: panel of 14 human cancer cell lines; test: MTT cell viability assay, whole panel; format: cell-based; design: key: no impact (0); weak impact (+); strong impact (++); conditions: summary grade
readout-label: Cytotoxicity

Guide cases for Cytotoxicity, answers given:
CCOc1c2c(c3ccc(C(=O)N4CCOCC4)cn13)SSSSS2
++
CCOc1c2c(c3ccc(C(=O)N(CC)CC)cn13)SSSSS2
++
CCOc1c2c(c3cnc4[nH]c(-c5ccc(OC)cc5)cc4n13)SSSSS2
++
CCOc1c2c(c3ccc(C(=O)N4CCCCC4)cn13)SSSSS2
+

Prompt: Looking for the measured Cytotoxicity of CCOc1c2c(c3ccc(C(=O)N4CCN(C(=O)c5ccc(F)cc5)CC4)cn13)SSSSS2 , can you help?
Response: ++

Prompt: Moving on to CCOc1c2c(c3ccc(C(=O)N4CCN(S(=O)(=O)c5ccc(C)cc5)CC4)cn13)SSSSS2
Response: +

----------
test system: YAPC; test: MTT cell viability assay; assay type: cell-based; settings: Homo sapiens, 48 h, normoxic (19% O2), read-out: IC50 MTT-N mean
readout-label: IC50 (µM)
# value in µM; strip the unit string

Prompt: I would be grateful if you could share the reported IC50 for CCOc1c2c(c3ccc(C(=O)N4CCN(C(=O)c5ccc(F)cc5)CC4)cn13)SSSSS2 .
Response: 1.36

Prompt: Another molecule to check: CCOc1c2c(c3ccc(C(=O)N(CC)CC)cn13)SSSSS2
Response: 1.15

Prompt: CCOc1c2c(c3ccc(C(=O)N4CCCCC4)cn13)SSSSS2 ?
Response: 1.55

Prompt: And CCOc1c2c(c3cnc4[nH]c(-c5ccc(OC)cc5)cc4n13)SSSSS2 ?
Response: 0.78

Prompt: Entry to check: CCOc1c2c(c3ccc(C(=O)N4CCN(S(=O)(=O)c5ccc(C)cc5)CC4)cn13)SSSSS2
Response: 5.17

Prompt: Same lookup for CCOc1c2c(c3ccc(C(=O)N4CCOCC4)cn13)SSSSS2 , please.
Response: 1.23

----------
I'd be grateful if you could share measured remaining activity at 12.5 µM for these entries.
Target: bovine erythrocyte GPx1 (Bos taurus, UniProt P00435)
Construct: the isolated enzyme from bovine erythrocytes; purchased Sigma-Aldrich (Taufkirchen, Germany); host or cells: isolated from bovine erythrocytes
Sequence (P00435 1-205): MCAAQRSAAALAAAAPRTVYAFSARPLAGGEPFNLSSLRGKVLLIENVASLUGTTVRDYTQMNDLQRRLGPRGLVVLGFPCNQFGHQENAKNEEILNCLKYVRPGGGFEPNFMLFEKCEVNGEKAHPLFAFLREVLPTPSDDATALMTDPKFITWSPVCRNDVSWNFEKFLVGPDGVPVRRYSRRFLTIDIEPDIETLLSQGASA
Assay: GPx1 enzyme activity assay (NADPH-coupled, t-BHP substrate)
Type: biochemical
Settings: residual GPx1 activity at highest tested concentration of 12.5 µM
Give your result in % as a bare value.

Prompt: Could you share which remaining activity at 12.5 µM value was measured for CCOc1c2c(c3ccc(C(=O)N4CCOCC4)cn13)SSSSS2 ?
Response: 29

Prompt: Would you mind doing CCOc1c2c(c3ccc(C(=O)N4CCN(S(=O)(=O)c5ccc(C)cc5)CC4)cn13)SSSSS2 as well?
Response: 53.3

Prompt: Moving on to the next compound: CCOc1c2c(c3ccc(C(=O)N4CCN(C(=O)c5ccc(F)cc5)CC4)cn13)SSSSS2
Response: 28.7

Prompt: Queued: CCOc1c2c(c3ccc(C(=O)N(CC)CC)cn13)SSSSS2
Response: 27.9

Prompt: How about this compound: CCOc1c2c(c3ccc(C(=O)N4CCCCC4)cn13)SSSSS2
Response: 27.5

Prompt: Can you check CCOc1c2c(c3cnc4[nH]c(-c5ccc(OC)cc5)cc4n13)SSSSS2 next?
Response: 16
